# System: A-431
# method.description: Antiproliferative activity against human A431 cells at 25 uM by MTT assay
# Format: functional
Where a SMILES comes first, the peptide text is derived from it. Bridges are numbered along the chain shown (N, C = ends). [ ]: non-standard residue; d: D form.
quantity: Activity (%)
Kindly provide the numeric value in % only, without the unit symbol.

Consider the worked cases shown below.
compound	unit.abbreviation	Activity
Cc1cc(O)cc(C)c1C[C@@H]1NC(=O)CCc2nc(C)c([nH]c2=O)CCCCNC(=O)[C@H](CCCCN)NC(=O)[C@@H](Cc2c[nH]c3ccccc23)NC1=O	%	0
Cc1nc2c(=O)[nH]c1CCC(=O)N[C@@H](Cc1ccc(O)cc1)C(=O)N[C@H](Cc1c[nH]c3ccccc13)C(=O)N[C@@H](CCCCN)C(=O)NCCCC2	%	36

Task item: State its Activity for this compound: "Cc1nc2c(=O)[nH]c1CCC(=O)N[C@@H](Cc1ccccc1)C(=O)N[C@H](Cc1c[nH]c3ccccc13)C(=O)N[C@@H](CCCCN)C(=O)NCCCC2"
Reply: 28

Task item: State its Activity for this compound: C[C@@H](O)[C@H](NC(=O)[C@@H]1CSSC[C@H](NC(=O)[C@H](N)Cc2ccccc2)C(=O)N[C@@H](Cc2ccc(O)cc2)C(=O)N[C@H](Cc2c[nH]c3ccccc23)C(=O)N[C@@H](CCCCN)C(=O)N1)C(N)=O [TT-232] (H-[dF]CY[dW]KCT-NH2; disulfide 2-6)
Reply: 60

Task item: State its Activity for this compound: C[C@@H]1C[C@@H]([C@H](O)CC2CC(=O)NC(=O)C2)C(=O)[C@@H](C)C1 [CYCLOHEXIMIDE]
Reply: 70

Task item: State its Activity for this compound: "Cc1nc2c(=O)[nH]c1CCCCNC(=O)[C@H](CCCCN)NC(=O)[C@@H](Cc1c[nH]c3ccccc13)NC(=O)[C@H](Cc1ccc(O)cc1)NC(=O)CC2"
Reply: 42

Task item: State its Activity for this compound: "Cc1cc(O)cc(C)c1C[C@@H]1NC(=O)CCc2[nH]c(=O)c(nc2C)CCCCNC(=O)[C@H](CCCCN)NC(=O)[C@@H](Cc2c[nH]c3ccccc23)NC1=O"
Reply: 0

Task item: State its Activity for this compound: "Cc1nc2c(=O)[nH]c1CCCCNC(=O)[C@H](CCCCN)NC(=O)[C@@H](Cc1c[nH]c3ccccc13)NC(=O)[C@H](Cc1ccccc1)NC(=O)CC2"
Reply: 0
